The measured values listed here are drawn from ChEMBL document CHEMBL1201862.

- Test system: OVCAR-4
- assay-method-text: NCI tumour cell line growth inhibition, 48 h
Calls of active or inactive are those of the source. Cut-off read from the data, not from the text of the source: active = GI50 up to about 1.1 µM and inactive = higher.
measured-attribute: GI50

Q: Short answer please: GI50, OVCAR-4, entry CC(C)c1cccc(C(C)C)c1NC(=O)C(=O)C(C(=O)c1ccc2ccccc2c1)C1OC(=O)c2ccccc21 (configuration not stated)
A: > 100 µM (inactive)

New cases:
Q: Short answer please: GI50, OVCAR-4, entry CCOC(=N)CC(=O)Nc1ccccc1
A: 34.5 µM (inactive)

Q: Short answer please: GI50, OVCAR-4, entry O=C1NCN(c2ccccc2)C12CCN(CCCN1CCN(CCOC(c3ccccc3)c3ccccc3)CC1)CC2
A: 3.53 µM (inactive)

Q: Short answer please: GI50, OVCAR-4, entry Cc1ccc(/N=N/N(C)C(C)C(O)Cc2ccccc2)cc1 (configuration not stated)
A: > 100 µM (inactive)

Q: Short answer please: GI50, OVCAR-4, entry O=C1/C(=C/c2ccc(O)cc2)CCC1CNc1ccc(Cl)cc1 (configuration not stated)
A: 2.96 µM (inactive)

Q: Short answer please: GI50, OVCAR-4, entry Nc1nc(O)c2nc(N)n(Cc3ccccc3)c2n1
A: > 100 µM (inactive)

Q: Short answer please: GI50, OVCAR-4, entry CC1CCC2CC1NC(=O)CCOCCC(=O)NC2(C)C (configuration not stated)
A: > 100 µM (inactive)
